FYI, the data here is from PubChem BioAssay.

Listing: z-score of selected compounds
Assay: growth effects on S. cerevisiae YJM789 – YJM789 clinical isolate, OD600, 24 h, basal, primary screen (AID 1089);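 note: growth of clinical yeast isolate S. cerevisiae YJM 789 seeded 1000 cells per well; test concentration not given here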
Details: higher = more signal, called active from +8 up or from −8 down
Returns: the value as a bare number; no unit string appended.

// known answers, use as guide
[[record]]
compound = "CC(C)NC(=O)[C@@]1(c2ccc([N+](=O)[O-])cc2)CC(=O)N(CC23CC4CC(CC(C4)C2)C3)[C@@H]1c1ccc(CO)cc1"
quantity_measured = "z-score"
reading = -0.383

[[record]]
compound = "COc1ccc([Si](C)(C)[C@H]2[C@H](CCO)O[C@@]3(C(=O)N(Cc4ccc(NC(=O)[C@H](C)O)cc4)c4ccccc43)[C@@H]2C)cc1"
quantity_measured = "z-score"
reading = 2.39

[[record]]
compound = "O=C1C2C=CC(C(O)c3ccc([N+](=O)[O-])cc3)N(Nc3ccccc3F)C2C(=O)N1c1ccccc1 (centres undefined)"
quantity_measured = "z-score"
reading = 0.213

[[record]]
compound = "CCCc1cc2c(n1CCc1ccc(Cl)cc1)C(C)C1CN(C(=O)c3ccccc3)C(C)(C(=O)OC)C21 (centres undefined)"
quantity_measured = "z-score"
reading = 0.318

[[record]]
compound = "CCCNC(=O)[C@@]1(c2ccc([N+](=O)[O-])cc2)CC(=O)N(C(C)C)[C@@H]1c1ccc(CO)cc1"
quantity_measured = "z-score"
reading = -0.836


**Query** Using the record for C=C(C)[C@@H]1CC=C(C(O)C2C=CC3C(=O)N(c4ccccc4)C(=O)C3N2Nc2ccc([N+](=O)[O-])cc2)CC1 (some centres undefined) , report its z-score.
**Result** -0.0158

**Query** Look up z-score: COC(=O)[C@@]1(Cc2ccc(OC)cc2)[C@H]2c3cc(C(=O)N4CCCC4)n(Cc4ccc(Cl)c(C(F)(F)F)c4)c3C[C@H]2CN1C(=O)c1ccccc1
**Result** -1.21
